Measured values drawn from patent US12503471B2 for this set.

Biological target: human TLR7 (Homo sapiens)
Sequence (Q9NYK1 27-1049): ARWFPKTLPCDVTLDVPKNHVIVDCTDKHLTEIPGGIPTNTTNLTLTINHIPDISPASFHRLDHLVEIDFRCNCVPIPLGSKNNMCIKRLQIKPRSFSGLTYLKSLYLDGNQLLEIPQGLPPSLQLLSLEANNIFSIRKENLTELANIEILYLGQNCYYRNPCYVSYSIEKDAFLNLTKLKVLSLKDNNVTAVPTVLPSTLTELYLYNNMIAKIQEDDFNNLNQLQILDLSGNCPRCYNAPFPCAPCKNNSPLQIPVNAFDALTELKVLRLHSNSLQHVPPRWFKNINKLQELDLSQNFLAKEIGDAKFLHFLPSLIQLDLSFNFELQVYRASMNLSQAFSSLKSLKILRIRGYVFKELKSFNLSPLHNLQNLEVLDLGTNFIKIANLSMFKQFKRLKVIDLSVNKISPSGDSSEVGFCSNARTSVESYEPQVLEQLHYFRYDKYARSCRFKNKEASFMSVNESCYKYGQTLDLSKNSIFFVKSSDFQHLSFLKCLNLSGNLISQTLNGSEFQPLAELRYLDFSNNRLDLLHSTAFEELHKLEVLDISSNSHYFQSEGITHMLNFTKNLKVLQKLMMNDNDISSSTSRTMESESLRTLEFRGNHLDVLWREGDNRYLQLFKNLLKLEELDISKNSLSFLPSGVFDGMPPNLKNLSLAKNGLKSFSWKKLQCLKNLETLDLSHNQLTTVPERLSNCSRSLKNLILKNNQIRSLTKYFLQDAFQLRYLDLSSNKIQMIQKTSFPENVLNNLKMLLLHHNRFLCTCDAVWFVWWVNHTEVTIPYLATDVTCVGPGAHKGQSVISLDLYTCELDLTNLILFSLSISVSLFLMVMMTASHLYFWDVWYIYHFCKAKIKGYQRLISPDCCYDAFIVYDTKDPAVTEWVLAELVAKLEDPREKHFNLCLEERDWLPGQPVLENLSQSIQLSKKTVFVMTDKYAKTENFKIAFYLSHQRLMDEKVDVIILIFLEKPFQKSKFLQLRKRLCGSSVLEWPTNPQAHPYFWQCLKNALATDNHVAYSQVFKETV
Test: HEK293-Blue-hTLR-7 cells assay
Details: HEK293-Blue-hTLR7 cells, R848 stimulation, 20 hrs, SEAP reporter; read-out: HEK/hTLR7 IC50
pIC50: −log10 of the molar value.
PROPERTY: pIC50

Example cases with answers are listed next.
{"MOLECULE": "[2H]c1ccc2c(N3C[C@@H](C)N4Cc5nc(N6C[C@H]7C[C@@H]6CN7)ccc5[C@H]4C3)ccc(C#N)c2n1 [Example 17]", "pIC50": 8.57}
{"MOLECULE": "[2H]c1ccc2c(N3C[C@@H](C)N4Cc5nc(O[C@H]6CCNC6)ccc5[C@H]4C3)ccc(C#N)c2n1 [Example 25]", "pIC50": 9.00}
{"MOLECULE": "[2H]c1ccc2c(N3C[C@@H](C)N4Cc5nc(N6CC[C@@H](N)[C@H](OC)C6)ccc5[C@H]4C3)ccc(C#N)c2n1 [Example 11]", "pIC50": 8.43}

A: N#Cc1ccc(N2CCN3Cc4nc(N5CCNCC5)ccc4[C@@H]3C2)c2cccnc12 [Example 3A]
B: [2H]c1ccc2c(N3C[C@@H](C)N4Cc5nc(N6CC[C@H](N)[C@@H](OC)C6)ccc5[C@H]4C3)ccc(C#N)c2n1 [Example 12]
Query: Identify the item whose pIC50 is the smaller number: A or B Please respond with the label that marks your chosen entry.
Reply: A
